Target: Solute carrier family 2, facilitated glucose transporter member 1 (Homo sapiens)
Test: ST_JUDE_LEISH: Cytotoxicity at 2uM final concentration against transgenic Leishmania Mexicana promastigotes LmGLUT1 that are glucose transport deficient and complemented with the human glucose transporter GLUT1. Activity is measured by DNA content using SYBR green in vitro
Format: functional
reported endpoint: inhibition (%)
# unit: % | format: bare number

CCOc1ccc(Br)cc1/C=C/C(=O)Nc1ccc2c(c1)C1CCC2N1C (stereo not drawn)	2.58
COCCNCc1ccc(-c2ccc(CN(C(=O)Nc3ccccc3)C3CCN(Cc4ccccc4)CC3)cc2)cc1	7.17
COC(=O)c1ccc(CC(C)NCC(O)c2ccccc2Cl)cc1 (stereo not drawn)	0.96
C[C@H](Cc1ccc(OCCCCCCOc2ccccc2)cc1)NC[C@@H](O)c1cc(Br)no1	2.44
Cc1c(C(=O)N[C@@H](C)c2ccccc2)c2cc(O)c(Br)cc2n1C1CCCCC1	2.84
COc1ccc(C(=O)C2CC2CN2CC=C(c3c(C)[nH]c4ccccc34)CC2)cc1 (stereo not drawn)	-1.12

q: // returns reported inhibition for input Cc1cc(O)cc2c(C3CCN(CC4CCN(C(=O)/C=C/c5ccc(Cl)c(Cl)c5)CC4)CC3)c[nH]c12
a: 0.1

q: // returns reported inhibition for input CN(CC(=O)N1CCN(S(=O)(=O)c2cccc(Cl)c2)CC1CN1CCCC1)c1ccc(Cl)c(Cl)c1 (stereo not drawn)
a: 0.54

* * *

Target: Glucose transporter (Leishmania mexicana)
Experiment: ST_JUDE_LEISH: Cytotoxicity at 2uM final concentration against transgenic Leishmania Mexicana promastigotes LmGT2 that are glucose transport deficient and complemented with the L. Mexicana glucose transporter 2. Activity is measured by DNA content using SYBR green in vitro
Type: functional
reported endpoint: inhibition

See these solved cases before continuing.
O=C(/C=C/c1c(Cl)cccc1Cl)NC1CCC(CN2C3CCC2CC(c2c[nH]c4ccccc24)C3)CC1 (configuration not stated)	-0.2%
COc1cc(CN2CCN(c3ccnc(N(C)C4CCN(C)CC4)n3)CC2)cc(Cl)c1O	6.73%
C1=C(c2c[nH]c3ccccc23)CCN(Cc2ccccc2)C1	-0.23%
COc1ccc(CN2CCN(CCOC(c3ccccc3)c3ccccc3)CC2)c(O)c1	0.74%
CCCC(=O)c1c(O)c2ccccc2oc1=O	5.83%
Cc1cc(NC(=O)[C@H](CC(C)C)Nc2ccc(C#N)c3ccccc23)ccc1F	-0.16%
CC(C)CNCc1cccc(-c2ccc(CN(C(=O)NC3CCCCC3)C3CCN(Cc4ccccc4)CC3)cc2)c1	5.84%
C=C[C@H]1CN2CC[C@H]1C[C@H]2[C@H](O)c1ccnc2ccccc12	1.5%
Cc1ccc(C(=O)Nc2ccnc(N(C)C3CCN(Cc4cccc(O)c4)CC3)c2)cn1	1.3%
CC(C)CNCc1ccc(-c2cccc(CN(C(=O)CCC3CCCC3)C3CCN(Cc4ccccc4)CC3)c2)cc1	10.7%

q: // returns reported inhibition for input COCCNCc1cccc(-c2ccc(CN(C(=O)Nc3ccccc3)C3CCN(Cc4ccccc4)CC3)cc2)c1
a: 2.73%

q: // returns reported inhibition for input CN(CC(=O)N1CCN(S(=O)(=O)c2cccc(Cl)c2)CC1CN1CCCC1)c1ccc(Cl)c(Cl)c1 (configuration not stated)
a: 2.07%

q: // returns reported inhibition for input COc1cccc(C2(C)CCN(CCCCNC(=O)c3ccc(NC(=O)c4ccc(Cl)cc4)cc3)CC2)c1
a: -3.4%

q: // returns reported inhibition for input N#Cc1ccc(N(CC(=O)NCCc2ccc(F)cc2)CC2CC2)c2ccccc12
a: 1.47%

q: // returns reported inhibition for input CC[C@H]1CN2CC[C@H]1C[C@H]2[C@H](O)c1cc(/C=C/c2ccc(F)cc2)nc2ccc(OC)cc12
a: 2.03%

q: // returns reported inhibition for input Cc1cccc(C(=O)Nc2ccnc(N(C)C3CCN(Cc4cccc(O)c4)CC3)c2)c1
a: 3.85%

q: // returns reported inhibition for input COC(=O)c1ccc(CC(C)NCC(O)c2cccc3ccccc23)cc1 (configuration not stated)
a: 2.22%

q: // returns reported inhibition for input COc1coc(C(=O)NC2CCN(CC3(c4ccc(Cl)cc4)CCC3)CC2)c1OC
a: 2.81%

q: // returns reported inhibition for input COc1nc(N)ncc1C(=O)NC1CN2CCC1CC2 (configuration not stated)
a: 7.08%

q: // returns reported inhibition for input CC[C@H]1CN2CC[C@H]1C[C@@H]2[C@@H](O)c1ccnc2ccccc12
a: -1.98%

q: // returns reported inhibition for input CN(c1ccc(NC(=O)CCOc2ccccc2)cc1)C1CCN(Cc2cccc(O)c2)CC1
a: -0.97%

q: // returns reported inhibition for input CC(Cc1ccc(SC(C)(C)C)cc1)NCC(O)c1cccc(Cl)c1 (configuration not stated)
a: -0.72%

q: // returns reported inhibition for input COc1ccc(C(=O)C2CC2CN2CC=C(c3c[nH]c4cccc(Br)c34)CC2)cc1 (configuration not stated)
a: 2.11%

q: // returns reported inhibition for input CNCCc1c(O)ccc2ccccc12
a: 3.59%
